Where do these numbers come from? They come from PubChem BioAssay AID1199.

Test system: mouse carcinogenicity bioassay, TD50 from CPDB
PROCEDURE_DETAILS: DSSTox (CPDBAS) Carcinogenic Potency Database Summary Mouse Bioassay Results
COND: TD50_Mouse_Note: TD50 is harmonic mean of more than one positive test; TargetSites_Mouse_Female: harderian gland; hematopoietic system; liver

[
  {
    "SMILES_CODE": "CN(C)c1ccc(C(=C2C=CC(=[N+](C)C)C=C2)c2ccc(N(C)C)cc2)cc1",
    "Potency": "0.222 mmol/kg/day"
  }
]

* * *

Test system: mouse carcinogenicity bioassay, TD50 from CPDB
PROCEDURE_DETAILS: DSSTox (CPDBAS) Carcinogenic Potency Database Summary Mouse Bioassay Results
COND: TD50_Mouse_Note: TD50 is harmonic mean of more than one positive test; TargetSites_Mouse_BothSexes: liver

[
  {
    "SMILES_CODE": "ClC1=C(Cl)[C@]2(Cl)[C@@H]3[C@H]4C=CC(C4)[C@@H]3C1(Cl)C2(Cl)Cl",
    "Potency": "0.00348 mmol/kg/day"
  }
]

* * *

Tested on: mouse carcinogenicity bioassay, TD50 from CPDB
PROCEDURE_DETAILS: DSSTox (CPDBAS) Carcinogenic Potency Database Summary Mouse Bioassay Results
COND: TargetSites_Mouse_Female: hematopoietic system; vascular system
QUANTITY_NAME: Potency

[
  {
    "SMILES_CODE": "Cn1cnc([N+](=O)[O-])c1Sc1ncnc2nc[nH]c12",
    "RESULT": "0.0322 mmol/kg/day"
  }
]

* * *

System: mouse carcinogenicity bioassay, TD50 from CPDB
PROCEDURE_DETAILS: DSSTox (CPDBAS) Carcinogenic Potency Database Summary Mouse Bioassay Results
COND: TD50_Mouse_Note: TD50 is harmonic mean of more than one positive test; TargetSites_Mouse_Female: hematopoietic system; lung; myocardium; stomach

[
  {
    "SMILES_CODE": "C[C@]12CC[C@@H]3c4ccc(OC(=O)Cc5ccc(N(CCCl)CCCl)cc5)cc4CC[C@H]3[C@@H]1CC[C@@H]2OC(=O)Cc1ccc(N(CCCl)CCCl)cc1",
    "Potency": "0.00184 mmol/kg/day"
  }
]

* * *

Test system: mouse carcinogenicity bioassay, TD50 from CPDB
PROCEDURE_DETAILS: DSSTox (CPDBAS) Carcinogenic Potency Database Summary Mouse Bioassay Results
COND: TargetSites_Mouse_Female: lung; stomach; urinary bladder

[
  {
    "SMILES_CODE": "Cl/C=C/CCl",
    "Potency": "0.447 mmol/kg/day"
  }
]

* * *

In this section we review reported Potency values for a set of molecules.
Tested on: mouse carcinogenicity bioassay, TD50 from CPDB
PROCEDURE_DETAILS: DSSTox (CPDBAS) Carcinogenic Potency Database Summary Mouse Bioassay Results
COND: TD50_Mouse_Note: TD50 is harmonic mean of more than one positive test; TargetSites_Mouse_Female: thyroid gland

[
  {
    "SMILES_CODE": "Cc1cc(C)nc(NS(=O)(=O)c2ccc(N)cc2)n1",
    "Potency": "5.43 mmol/kg/day"
  },
  {
    "SMILES_CODE": "COc1ccc(N)cc1N",
    "Potency": "3.83 mmol/kg/day"
  },
  {
    "SMILES_CODE": "O=c1cc(CO)occ1O",
    "Potency": "4.63 mmol/kg/day"
  }
]
